Attribution: ChEMBL document CHEMBL4513139

System: Acinetobacter baumannii
Assay: microbe, parasite or virus in culture
Settings: ATCC 19606, 18 h, ASSAY_TEST Inhibition of Bacterial Growth, detection method Absorption (OD600), MEDIA CAMHB, plate type 384well, NBS, CORNING #3640
Description: Antibacterial activity against Acinetobacter baumannii ATCC 19606 (CO-ADD:GN_034); MIC in CAMBH media using NBS plates, by OD600
assayMetric: MIC

Examples with answers:
Cn1cc(NC(=O)c2cc(NC(=O)c3ccc(/C=C/c4ccc(C(F)(F)F)cc4)cc3)cn2C)cc1C(=O)NCCN1CCOCC1.O=C(O)C(F)(F)F
> 32 µg/mL
Cn1cc(NC(=O)c2ccc(/C=C/c3cnc4ccccc4c3)cc2)cc1C(=O)Nc1nc(C(=O)NCCN2CCOCC2)c(C2CCCCC2)s1.O=C(O)C(F)(F)F.O=C(O)C(F)(F)F
> 32 µg/mL
Cn1cc(NC(=O)c2ccc(/C=C/c3cnc4ccccc4c3)cc2)cc1C(=O)Nc1cc(C(=O)NCCN2CCOCC2)n(CCCc2ccccc2)c1.O=C(O)C(F)(F)F.O=C(O)C(F)(F)F
> 32 µg/mL
Cn1cc(NC(=O)c2cc(NC(=O)c3ccc(/C=C/c4ccc5ccccc5c4)cc3)cn2C)cc1C(=O)NCCN1CCOCC1.O=C(O)C(F)(F)F
> 32 µg/mL
Cn1cc(NC(=O)c2ccc(/C=C/c3cnc4ccccc4c3)cc2)cc1C(=O)Nc1nc(C(=O)NCCN2CCOCC2)c(CCc2ccccc2)s1.O=C(O)C(F)(F)F.O=C(O)C(F)(F)F
> 32 µg/mL

Note: attention shifts to another entry.
Quick note, MIC for Cn1cc(NC(=O)c2cc(NC=O)cn2C)cc1C(=O)NCCC(=N)N.O=C(O)C(F)(F)F landed at > 32 µM

----------
Test system: Klebsiella pneumoniae
Experiment: microbe, parasite or virus in culture
Conditions: ATCC 700603, 18 h, ASSAY_TEST Inhibition of Bacterial Growth, detection method Absorption (OD600), MEDIA CAMHB, plate type 384well, NBS, CORNING #3640
Description: Antibacterial activity against Klebsiella pneumoniae MDR ATCC 70063 (CO-ADD:GN_003); MIC in CAMBH media using NBS plates, by OD(600)
assayMetric: MIC

Cn1cc(NC(=O)c2cc(NC(=O)c3ccc(/C=C/c4ccc5ccccc5n4)cc3)cn2C)cc1C(=O)NCCN1CCOCC1.O=C(O)C(F)(F)F
> 32 µg/mL
Cn1cc(NC(=O)c2cc(NC(=O)c3ccc(/C=C/c4ccc(F)cc4)cc3)cn2C)cc1C(=O)NCCN1CCOCC1.O=C(O)C(F)(F)F
> 32 µg/mL

Note: attention shifts to another entry.
Quick note, MIC for Cn1cc(NC(=O)c2ccc(/C=C/c3ccncc3)cc2)cc1C(=O)Nc1cc(C(=O)NCCN2CCOCC2)n(CCCSc2ccccc2)c1.O=C(O)C(F)(F)F.O=C(O)C(F)(F)F landed at > 32 µg/mL

----------
Reported values of MIC for individual entries
System: Staphylococcus aureus
Test: microbe, parasite or virus in culture
Settings: ATCC 43300, 18 h, ASSAY_TEST Inhibition of Bacterial Growth, detection method Absorption (OD600), MEDIA CAMHB, plate type 384well, NBS, CORNING #3640
Description: Antibacterial activity against Staphylococcus aureus MRSA ATCC 43300 (CO-ADD:GP_020); MIC in CAMBH media, using NBS plates, by OD(600)

Cn1cc(NC(=O)c2ccc(/C=C/c3cnc4ccccc4c3)cc2)cc1C(=O)Nc1cc(C(=O)NCCN2CCOCC2)n(CCCN=[N+]=[N-])c1.O=C(O)C(F)(F)F.O=C(O)C(F)(F)F tested on Staphylococcus aureus gave MIC: 2 µg/mL

COCCOC1CCN(C(=O)c2cc(NC(=O)c3cc(NC(=O)c4ccc(/C=C/c5ccc(OC)cc5)nc4)cn3C)cn2C)CC1.O=S(=O)(O)O tested on Staphylococcus aureus gave MIC: > 32 µg/mL

CN(C)CCNC(=O)c1cc(NC(=O)c2cc(NC(=O)c3ccc(/C=C/c4cnc5ccccc5c4)cc3)cn2C)cn1C.O=C(O)C(F)(F)F.O=C(O)C(F)(F)F tested on Staphylococcus aureus gave MIC: 0.5 µg/mL

COc1ccc(C(=N)Nc2cc(C(=O)Nc3cc(C(=O)NCCN4CCOCC4)n(CCCc4cn(CCc5ccccc5)nn4)c3)n(C)c2)cc1.O=C(O)C(F)(F)F.O=C(O)C(F)(F)F tested on Staphylococcus aureus gave MIC: > 32 µg/mL

Cn1cc(NC(=O)c2ccc(/C=C/c3ccncc3)cc2)cc1C(=O)Nc1cc(C(=O)NCCN2CCOCC2)n(CCCSc2ccccc2)c1.O=C(O)C(F)(F)F.O=C(O)C(F)(F)F tested on Staphylococcus aureus gave MIC: > 32 µg/mL
